target: tubulin; construct: tubulin purified from goat brain; assay: quenching of intrinsic tryptophan fluorescence; format: binding, Capra hircus
recorded-endpoint: Kd

Data request: Return Kd measured with tubulin given this compound: `COc1cc(/C=C/C(=O)CC(=O)/C=C/c2ccc(O)c(OC)c2)ccc1O`
Data returned: 5.2 µM
